# assay_target: Sigma non-opioid intracellular receptor 1 (Homo sapiens, UniProt Q99720)
# Sequence (Q99720 whole entry): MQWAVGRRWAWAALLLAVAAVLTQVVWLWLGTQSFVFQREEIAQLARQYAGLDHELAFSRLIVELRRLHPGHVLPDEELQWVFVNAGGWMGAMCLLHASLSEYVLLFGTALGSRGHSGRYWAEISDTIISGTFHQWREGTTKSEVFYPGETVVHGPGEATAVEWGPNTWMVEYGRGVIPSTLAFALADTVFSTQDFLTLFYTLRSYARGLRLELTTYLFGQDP
# assay: Displacement of [3H]-(+)-pentazocine from sigma 1 receptor (unknown origin) assessed as inhibition constant by scintillation counting analysis
measurement_name: Ki (nM)

> print(dat)
                       smiles.record                              assay.target  observed
1  c1ccc(CC2CCN(CCCOc3ccccc3)CC2)cc1  Sigma non-opioid intracellular receptor 1 (Homo sapiens, UniProt Q99720)       1.1
2   c1ccc(CC2CCN(CCOc3ccccc3)CC2)cc1  Sigma non-opioid intracellular receptor 1 (Homo sapiens, UniProt Q99720)      0.93

====

# assay_target: Sigma non-opioid intracellular receptor 1 (Homo sapiens, UniProt Q99720)
# assay: Binding affinity to sigma 1 receptor (unknown origin) assessed as inhibition constant
Lab note: anything with Ki below 6 nM is marked true (1); values at 6 nM or higher are marked false (0).

> print(dat)
                                   compound  assigned.class
1  CN(C)CC1CCOC1(c1ccccc1)c1ccccc1 (stereo not given)       false (0)
2  c1ccc(CN2CCN(CC3CSC4(CCCCC4)O3)CC2)cc1 (stereo not given)        true (1)
3  CC1(C)SCC(CN2CCC(Cc3ccccc3)CC2)S1 (stereo not given)        true (1)
4  c1ccc(CN2CCN(CC3COC4(CCCCC4)O3)CC2)cc1 (stereo not given)        true (1)
5  c1ccc(CC2CCN(CC3CSC4(CCCCC4)S3)CC2)cc1 (stereo not given)       false (0)

====

# assay: Cytotoxicity against human SH-SY5Y cells assessed as reduction in cell viability incubated for 72 hrs by MTT assay
# Format: toxicity, cell-based
measurement_name: CC50 at 72 h (µM)

> print(dat)
                                  compound  observed
1  CC12CC3CC(C)(C1)CC(N)(C3)C2 [MEMANTINE]        98

====

# assay: Thermodynamic solubility of the compound in HC1/KCl buffer at pH 1.2 incubated for 24 hrs
# Format: physicochemical
# run_parameters: HCl/KCl buffer, read-out: Therm_solubility
Examples of compounds with documented solubility thermodynamic at 24 h follow.
measurement_name: solubility thermodynamic at 24 h (µg/mL)

> print(dat)
                       smiles.record  scale.unit  observed
1  c1ccc(CC2CCN(CCCOc3ccccc3)CC2)cc1       µg/mL      2800
2   c1ccc(CC2CCN(CCOc3ccccc3)CC2)cc1       µg/mL      7800

====

Examples of compounds with documented pKa follow.
# assay: Dissociation constant, pKa of the compound
# Assay type: physicochemical
measurement_name: pKa

> print(dat)
                       smiles.record  measurement.name  observed
1  c1ccc(CC2CCN(CCCOc3ccccc3)CC2)cc1               pKa      9.26
2   c1ccc(CC2CCN(CCOc3ccccc3)CC2)cc1               pKa      8.56
